# Test system: RPMI-8226 leukemia
# Experiment Notes: NCI tumour cell line growth inhibition, 48 h
Endpoint: TGI

Lookup result for COc1c2c(c3c(c1CCC(=O)O)OC(C)(C)C=C3)OC(C)(C)C=C2 ; measured TGI: > 100 µM

Lookup result for COc1ccccc1NC(=O)CC(=O)N1N=C(C)C(N=Nc2ccc(S(N)(=O)=O)cc2)C1=O (configuration not stated) ; measured TGI: > 100 µM

Lookup result for CNC(=O)OCc1nc(SC2CCCCO2)n(C)c1COC(=O)NC (configuration not stated) ; measured TGI: > 100 µM

Lookup result for COc1cc(/C=C/C(=O)O)ccc1C(=O)O/C=C/c1ccccc1 ; measured TGI: > 100 µM

Lookup result for O=C(CN1CCCCC1)CC(O)(C(F)(F)F)C(F)(F)F ; measured TGI: > 100 µM

Lookup result for CCOP(=O)(OCC)C1C(CO)OC(n2ccc(=O)[nH]c2=O)C1O (configuration not stated) ; measured TGI: > 100 µM

Lookup result for C/C(N=Nc1nc2ccccc2s1)=C1/C=CC=CN1O ; measured TGI: > 100 µM

Lookup result for CC(=O)NS(=O)(=O)c1ccc(NC(=O)c2c3ccccc3nc3ccccc23)cc1 ; measured TGI: > 100 µM

Lookup result for COc1ccc(N[C@H](CSc2ccc(C)cc2)c2ccc(F)cc2)cc1 ; measured TGI: > 100 µM

Lookup result for COCCN1C2=CCCCC2=Nc2c1nc(N)[nH]c2=O ; measured TGI: > 100 µM

Lookup result for CNC(=O)c1cncc(/C=C/c2ccccc2C)c1 ; measured TGI: > 25 µM

Lookup result for CCCCn1c2c(n(CCCC)c1=S)-c1c(n(CCCC)c(=S)n1CCCC)S[Se][Se]S2 ; measured TGI: > 35.3 µM

Lookup result for C[n+]1c(-c2ccccc2)cc2/c(=C\c3ccc([N+](=O)[O-])cc3)c3ccccc3n21 ; measured TGI: > 100 µM

Lookup result for Cc1ccncc1.[O]=[Ge].[O]=[Ge].[O]=[Ge].[O]=[Ge].[O]=[Ge].[O]=[Ge][OH].[O]=[Ge][OH] ; measured TGI: > 100 µM

Lookup result for ClCCn1c(CCl)nc2ccc(Cl)cc21 ; measured TGI: 3.87 µM

Lookup result for Cc1nn(C(=O)Cc2ccccc2)c2c1C(c1ccccc1O)SC(N)=N2 (configuration not stated) ; measured TGI: > 100 µM

Lookup result for CN(C)c1nc(=NCc2ccncc2)ss1 ; measured TGI: 53.1 µM

Lookup result for Cc1occc1C(=S)Nc1ccc(Cl)c(COC(C)(C)C)c1 ; measured TGI: 50.5 µM

Lookup result for CC(C)(C)C#CC1=C(Br)C(=O)OC1 ; measured TGI: 3.71 µM

Lookup result for C=CCc1c2c(c(OC)c3ccoc13)C(=O)/C(=C/c1ccccc1OC)O2 ; measured TGI: > 100 µM

Lookup result for O=C1CCC(=Nc2ccc(Cl)cc2)N1C(=O)COc1ccc(OCC(=O)N2C(=O)CSC2=Nc2ccc(Cl)cc2)cc1 ; measured TGI: > 100 µM

Lookup result for CCCCOc1ccc(NC(N)=Nc2ccc(Cl)cc2)cc1 ; measured TGI: > 49.5 µM

====

# Test system: MCF7 breast
# Experiment Notes: NCI tumour cell line growth inhibition, 48 h
Endpoint: GI50

CN(CCCN)CCCNc1nc2ccccc2c2[nH]c3ccccc3c12 tested on MCF7 breast gave GI50: 0.245 µM

CCCCCCCCCC[C@H](O)[C@H]1CC[C@H]([C@H]2CC[C@H]([C@H](O)CC[C@H](O)CCCCCCC[C@@H](O)CC3=C[C@H](C)OC3=O)O2)O1 tested on MCF7 breast gave GI50: 3.98 µM

CC(C)(C)C#CC1=C(Br)C(=O)OC1 tested on MCF7 breast gave GI50: 3.99 µM

COc1ccc(C(=O)/C=C/c2ccc(/C=C/c3cc(OC)c(OC)c(OC)c3)cc2)cc1 tested on MCF7 breast gave GI50: 2.18 µM

COc1c(CCC[P+](c2ccccc2)(c2ccccc2)c2ccccc2)cc2c(c1OC)OCO2 tested on MCF7 breast gave GI50: 1.12 µM

Value source: PubChem BioAssay (NCI)
